Where do these numbers come from? They come from patent US10208019B2.

assayedSystem: human GLP-1R (Homo sapiens (Human), UniProt P43220, L260F)
Sequence (P43220 24-463 L260F): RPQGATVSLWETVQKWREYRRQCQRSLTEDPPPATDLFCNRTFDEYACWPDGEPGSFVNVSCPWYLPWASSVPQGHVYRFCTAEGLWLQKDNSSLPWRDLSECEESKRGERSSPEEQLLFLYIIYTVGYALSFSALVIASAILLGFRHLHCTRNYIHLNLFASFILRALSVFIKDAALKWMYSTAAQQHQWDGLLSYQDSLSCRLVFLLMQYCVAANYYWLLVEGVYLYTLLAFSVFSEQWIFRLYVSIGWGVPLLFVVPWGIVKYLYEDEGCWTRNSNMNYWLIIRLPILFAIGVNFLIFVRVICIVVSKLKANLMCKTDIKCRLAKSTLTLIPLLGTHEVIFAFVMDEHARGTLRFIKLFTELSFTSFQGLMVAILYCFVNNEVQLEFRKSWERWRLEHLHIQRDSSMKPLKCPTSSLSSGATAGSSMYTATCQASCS
protocolNotes: CHO GLP-1R Clone C6—Assay 2: HTRF cAMP cell-based functional agonist assay (low GLP-1R density)
measurementSetup: CHO GLP-1R Clone C6; relative to saturating concentration of full agonist GLP-1 (1 μM); arithmetic mean; read-out: Assay 2 Emax (%)
Listed below: Emax values for each entry.
Give just the number in %; leave the unit off.

COCCn1c(CN2CC[C@@H](c3cccc(OCc4ccc(Cl)cc4F)n3)[C@H](O)C2)nc2ccc(C(=O)O)cc21 (racemic) [Example 1A-23] | 98

Exercise: Item COCCn1c(CN2CCC(c3cccc(OCc4c(F)cc(Cl)cc4F)n3)CC2)nc2ccc(C(=O)O)cc21 [Example 8A-04] has what recorded Emax?
Solution: 88

Exercise: Item O=C(O)c1ccc2nc(CN3CCN(c4cccc(OCc5ccc(Cl)cc5F)n4)CC3)n(C[C@H]3CCO3)c2c1 [Example 10A-48] has what recorded Emax?
Solution: 76

Exercise: Item CCn1cnnc1Cn1c(CN2CCN(c3cccc(OCc4ccc(Cl)cc4F)n3)C[C@@H]2C)nc2ccc(C(=O)O)cc21 [Example 10A-21] has what recorded Emax?
Solution: 100
